Parameter relative viability: see the listing below.
- System: NCI-H2170
- experiment: relative viability (nuclei count vs DMSO), 5 days (fraction); higher = more cells survive
- stated_conditions: first compound 0.3162 µM
Number only, no unit.

Worked cases, relative viability given:
{"compound": "NC(=O)Nc1cc(-c2cccc(F)c2)sc1C(=O)N[C@H]1CCCNC1 [AZD7762] + C[C@@H](Oc1cc(-c2cnn(C3CCNCC3)c2)cnc1N)c1c(Cl)ccc(F)c1Cl [Crizotinib] (partner 1 µM)", "relative viability": 1.28}
{"compound": "NC(=O)Nc1cc(-c2cccc(F)c2)sc1C(=O)N[C@H]1CCCNC1 [AZD7762] + Nc1nc2[nH]cc(CCc3ccc(C(=O)N[C@@H](CCC(=O)O)C(=O)O)cc3)c2c(=O)[nH]1 [Pemetrexed] (partner 0.2 µM)", "relative viability": 0.236}
{"compound": "NC(=O)Nc1cc(-c2cccc(F)c2)sc1C(=O)N[C@H]1CCCNC1 [AZD7762] + O=C(c1cc(Cc2n[nH]c(=O)c3ccccc23)ccc1F)N1CCN(C(=O)C2CC2)CC1 [Olaparib] (partner 8 µM)", "relative viability": 0.423}

Consider now this further compound.
Returns the measured relative viability for the input compound. Input: NC(=O)Nc1cc(-c2cccc(F)c2)sc1C(=O)N[C@H]1CCCNC1 [AZD7762] + Cc1cc(Nc2cc(N3CCN(C)CC3)nc(Sc3ccc(NC(=O)C4CC4)cc3)n2)n[nH]1 [Tozasertib] (partner 0.1 µM)
0.788

###

- Test system: IA-LM
- experiment: relative viability (nuclei count vs DMSO), 5 days (fraction); higher = more cells survive
- stated_conditions: first compound 1 µM
Entries and their relative viability

{"molecule": "NC(=O)Nc1cc(-c2cccc(F)c2)sc1C(=O)N[C@H]1CCCNC1 [AZD7762] + C[C@@H](Oc1cc(-c2cnn(C3CCNCC3)c2)cnc1N)c1c(Cl)ccc(F)c1Cl [Crizotinib] (partner 1 µM)", "measured_result": 0.277}
{"molecule": "NC(=O)Nc1cc(-c2cccc(F)c2)sc1C(=O)N[C@H]1CCCNC1 [AZD7762] + COc1cc2c(Oc3ccc(NC(=O)C4(C(=O)Nc5ccc(F)cc5)CC4)cc3F)ccnc2cc1OCCCN1CCOCC1 [Foretinib] (partner 0.25 µM)", "measured_result": 0.59}
{"molecule": "NC(=O)Nc1cc(-c2cccc(F)c2)sc1C(=O)N[C@H]1CCCNC1 [AZD7762] + O=C(c1cc(Cc2n[nH]c(=O)c3ccccc23)ccc1F)N1CCN(C(=O)C2CC2)CC1 [Olaparib] (partner 8 µM)", "measured_result": 0.171}

Give its relative viability value. Item: NC(=O)Nc1cc(-c2cccc(F)c2)sc1C(=O)N[C@H]1CCCNC1 [AZD7762] + CS(=O)(=O)CCNCc1ccc(-c2ccc3ncnc(Nc4ccc(OCc5cccc(F)c5)c(Cl)c4)c3c2)o1 [Lapatinib] (partner 2 µM)
0.16

###

- System: NCI-H2085
- experiment: relative viability (nuclei count vs DMSO), 5 days (fraction); higher = more cells survive
- stated_conditions: first compound 0.04 µM
readout_name: relative viability
Output spec: single numeric token, no unit.

Requested field: relative viability. Item: O=C(O)c1ccc(-c2c[nH]c3ncc(-c4ccccc4)cc23)cc1C1CCCC1 + COc1cc2c(Oc3ccc(NC(=O)C4(C(=O)Nc5ccc(F)cc5)CC4)cc3F)ccnc2cc1OCCCN1CCOCC1 [Foretinib] (partner 0.25 µM)
1.14

Next compound up: O=C(O)c1ccc(-c2c[nH]c3ncc(-c4ccccc4)cc23)cc1C1CCCC1 + Nc1nc2[nH]cc(CCc3ccc(C(=O)N[C@@H](CCC(=O)O)C(=O)O)cc3)c2c(=O)[nH]1 [Pemetrexed] (partner 0.2 µM)
0.821

###

- System: NCI-H2405
- experiment: relative viability (nuclei count vs DMSO), 5 days (fraction); higher = more cells survive
- stated_conditions: first compound 0.253 µM
# if measured relative viability < 0.7: TRUE  # else: FALSE

See these solved cases before continuing.
{"molecule": "Oc1nc(-c2ccc(C(F)(F)F)cc2)nc2c1CSCC2 [XAV939] + N=C(N)NC(=N)NCCc1ccccc1 [Phenformin] (partner 250 µM)", "answer_label": "TRUE"}
{"molecule": "Oc1nc(-c2ccc(C(F)(F)F)cc2)nc2c1CSCC2 [XAV939] + Nc1ncn([C@H]2C[C@H](O)[C@@H](CO)O2)c(=O)n1 [Decitabine] (partner 2 µM)", "answer_label": "FALSE"}
{"molecule": "Oc1nc(-c2ccc(C(F)(F)F)cc2)nc2c1CSCC2 [XAV939] + NC(=O)Nc1cc(-c2cccc(F)c2)sc1C(=O)N[C@H]1CCCNC1 [AZD7762] (partner 0.2 µM)", "answer_label": "FALSE"}
{"molecule": "Oc1nc(-c2ccc(C(F)(F)F)cc2)nc2c1CSCC2 [XAV939] + CS(=O)(=O)CCNCc1ccc(-c2ccc3ncnc(Nc4ccc(OCc5cccc(F)c5)c(Cl)c4)c3c2)o1 [Lapatinib] (partner 2 µM)", "answer_label": "FALSE"}

Bench note: check whether Oc1nc(-c2ccc(C(F)(F)F)cc2)nc2c1CSCC2 [XAV939] + Cc1nc(NC(=O)N2CCC[C@H]2C(N)=O)sc1-c1ccnc(C(C)(C)C(F)(F)F)c1 [Alpelisib] (partner 2 µM) shows relative viability below 0.7
FALSE

###

- Test system: NCI-H2228
- experiment: relative viability (nuclei count vs DMSO), 5 days (fraction); higher = more cells survive
- stated_conditions: first compound 0.4 µM
readout_name: relative viability
Enter the number alone.

Example entries begin here.
{"molecule": "O=C(O)c1ccc(-c2c[nH]c3ncc(-c4ccccc4)cc23)cc1C1CCCC1 + CS(=O)(=O)CCNCc1ccc(-c2ccc3ncnc(Nc4ccc(OCc5cccc(F)c5)c(Cl)c4)c3c2)o1 [Lapatinib] (partner 2 µM)", "measured_target": "NCI-H2228", "relative viability": 1.2}
{"molecule": "O=C(O)c1ccc(-c2c[nH]c3ncc(-c4ccccc4)cc23)cc1C1CCCC1 + COc1cccc2cc(-c3nc([C@H]4CC[C@H](C(=O)O)CC4)n4ncnc(N)c34)[nH]c12 [OSI-027] (partner 0.5 µM)", "measured_target": "NCI-H2228", "relative viability": 0.446}
{"molecule": "O=C(O)c1ccc(-c2c[nH]c3ncc(-c4ccccc4)cc23)cc1C1CCCC1 + Nc1nc2[nH]cc(CCc3ccc(C(=O)N[C@@H](CCC(=O)O)C(=O)O)cc3)c2c(=O)[nH]1 [Pemetrexed] (partner 0.2 µM)", "measured_target": "NCI-H2228", "relative viability": 0.348}
{"molecule": "O=C(O)c1ccc(-c2c[nH]c3ncc(-c4ccccc4)cc23)cc1C1CCCC1 + C[C@]1(O)C[C@@H](c2nc(-c3ccc4ccc(-c5ccccc5)nc4c3)c3c(N)nccn32)C1 [Linsitinib] (partner 1 µM)", "measured_target": "NCI-H2228", "relative viability": 0.813}
{"molecule": "O=C(O)c1ccc(-c2c[nH]c3ncc(-c4ccccc4)cc23)cc1C1CCCC1 + CS(=O)(=O)N1CCN(Cc2cc3nc(-c4cccc5[nH]ncc45)nc(N4CCOCC4)c3s2)CC1 [Pictilisib] (partner 1 µM)", "measured_target": "NCI-H2228", "relative viability": 0.26}

Turning to the following molecule.
# lookup: relative viability of O=C(O)c1ccc(-c2c[nH]c3ncc(-c4ccccc4)cc23)cc1C1CCCC1 + CCNC(=O)c1noc(-c2cc(C(C)C)c(O)cc2O)c1-c1ccc(CN2CCOCC2)cc1 [Luminespib] (partner 0.01 µM)
0.0961

###

- Tested on: HCC-78
- experiment: relative viability (nuclei count vs DMSO), 5 days (fraction); higher = more cells survive
- stated_conditions: first compound 0.4 µM
readout_name: relative viability
Keep it simple and answer with nothing but the number.

Examples with answers:
{"compound": "O=C(O)c1ccc(-c2c[nH]c3ncc(-c4ccccc4)cc23)cc1C1CCCC1 + Cc1nc(Nc2ncc(C(=O)Nc3c(C)cccc3Cl)s2)cc(N2CCN(CCO)CC2)n1 [Dasatinib] (partner 0.075 µM)", "relative viability": 0.485}
{"compound": "O=C(O)c1ccc(-c2c[nH]c3ncc(-c4ccccc4)cc23)cc1C1CCCC1 + O=C(CCCCCCC(=O)Nc1ccccc1)NO [Vorinostat] (partner 1 µM)", "relative viability": 0.441}
{"compound": "O=C(O)c1ccc(-c2c[nH]c3ncc(-c4ccccc4)cc23)cc1C1CCCC1 + C[C@@H](Oc1cc(-c2cnn(C3CCNCC3)c2)cnc1N)c1c(Cl)ccc(F)c1Cl [Crizotinib] (partner 1 µM)", "relative viability": 0.328}

Kindly consider the entry below.
// lookup relative viability for O=C(O)c1ccc(-c2c[nH]c3ncc(-c4ccccc4)cc23)cc1C1CCCC1 + CC(=O)c1c(C)c2cnc(Nc3ccc(N4CCNCC4)cn3)nc2n(C2CCCC2)c1=O [Palbociclib] (partner 0.5 µM)
0.488
